System: RS4; 11
Assay: Cell viability assay (MTS) in RS4; 11 cells
Assay type: cell-based
Conditions: Homo sapiens, RS4-11; Table 2; 48 hr; MTS; read-out: Anti-Cancer Activity IC50 (48 hr) RS4; 11
pIC50: −log10 of the molar value.
Documented pIC50 across a set of molecules

Some solved entries appear below for comparison.
[[record]]
molecule = "Cc1ncsc1-c1ccc([C@H](C)NC(=O)[C@@H]2C[C@@H](O)CN2C(=O)[C@@H](NC(=O)CCCCCCC(=O)N2CCN(C[C@]3(C)CCC(c4ccc(Cl)cc4)=C(CN4CCN(c5ccc(C(=O)NS(=O)(=O)c6ccc(N[C@H](CCN7CCCCCC7)CSc7ccccc7)c([N+](=O)[O-])c6)cc5)CC4)C3)CC2)C(C)(C)C)cc1"
val = "> 7.70"

[[record]]
molecule = "Cc1ncsc1-c1ccc([C@H](C)NC(=O)[C@@H]2C[C@@H](O)CN2C(=O)[C@@H](NC(=O)CCCCCCC(=O)N2C(C)CN(C[C@]3(C)CCC(c4ccc(Cl)cc4)=C(CN4CCN(c5ccc(C(=O)NS(=O)(=O)c6ccc(N[C@H](CCN7CCCOCC7)CSc7ccccc7)c(S(=O)(=O)C(F)(F)F)c6)cc5)CC4)C3)CC2C)C(C)(C)C)cc1 (some centres unmarked)"
val = "6.30 to 7.00"

[[record]]
molecule = "CC(=O)N1CCN(CC[C@H](CSc2ccccc2)Nc2ccc(S(=O)(=O)NC(=O)c3ccc(N4CCN(CC5=C(c6ccc(Cl)cc6)CCC(C)(CN6CCN(C(=O)CCCCCCC(=O)N[C@H](C(=O)N7C[C@H](O)C[C@H]7C(=O)N[C@@H](C)c7ccc(-c8scnc8C)cc7)C(C)(C)C)CC6)C5)CC4)cc3)cc2[N+](=O)[O-])CC1 (some centres unmarked)"
val = "> 7.70"

[[record]]
molecule = "Cc1ncsc1-c1ccc([C@H](C)NC(=O)[C@@H]2C[C@@H](O)CN2C(=O)[C@@H](NC(=O)CC(=O)N2CCN(CC3CCN(CC4(C)CCC(c5ccc(Cl)cc5)=C(CN5CCN(c6ccc(C(=O)NS(=O)(=O)c7ccc(N[C@H](CCN8CCOCC8)CSc8ccccc8)c(S(=O)(=O)C(F)(F)F)c7)cc6)CC5)C4)CC3)CC2)C(C)(C)C)cc1 (some centres unmarked)"
val = "7.00 to 7.70"

[[record]]
molecule = "Cc1ncsc1-c1ccc([C@H](C)NC(=O)[C@@H]2C[C@@H](O)CN2C(=O)[C@@H](NC(=O)CC(=O)N2CCC(S(=O)(=O)N3CCN(C[C@]4(C)CCC(c5ccc(Cl)cc5)=C(CN5CCN(c6ccc(C(=O)NS(=O)(=O)c7ccc(N[C@H](CCN8CCCOCC8)CSc8ccccc8)c(S(=O)(=O)C(F)(F)F)c7)cc6)CC5)C4)CC3)CC2)C(C)(C)C)cc1"
val = "7.00 to 7.70"


Challenge: If you can, please state the reported pIC50 value of Cc1ncsc1-c1ccc([C@H](C)NC(=O)[C@@H]2C[C@@H](O)CN2C(=O)[C@@H](NC(=O)CCCCCC(=O)N2CCN(CC3CCN(CC4(C)CCC(c5ccc(Cl)cc5)=C(CN5CCN(c6ccc(C(=O)NS(=O)(=O)c7ccc(N[C@H](CCN8CCOCC8)CSc8ccccc8)c(S(=O)(=O)C(F)(F)F)c7)cc6)CC5)C4)CC3)CC2)C(C)(C)C)cc1 (some centres unmarked) .
Response given: 7.00 to 7.70

Challenge: If you can, please state the reported pIC50 value of Cc1ncsc1-c1ccc([C@H](C)NC(=O)[C@@H]2C[C@@H](O)CN2C(=O)[C@@H](NC(=O)CCCCCCC(=O)N2CCN(CC3(C)CCC(c4ccc(Cl)cc4)=C(CN4CCN(c5ccc(C(=O)NS(=O)(=O)c6ccc(N[C@H](CCN7C[C@H]8C[C@@H]7CO8)CSc7ccccc7)c(S(=O)(=O)C(F)(F)F)c6)cc5)CC4)C3)CC2)C(C)(C)C)cc1 (some centres unmarked) .
Response given: > 7.70

Challenge: If you can, please state the reported pIC50 value of "Cc1ncsc1-c1ccc([C@H](C)NC(=O)[C@@H]2C[C@@H](O)CN2C(=O)[C@@H](NC(=O)CCCCCCC(=O)N2CCN(C[C@]3(C)CCC(c4ccc(Cl)cc4)=C(CN4CCN(c5ccc(C(=O)NS(=O)(=O)c6ccc(N[C@H](CCN7CCc8cccnc8C7)CSc7ccccc7)c(S(=O)(=O)C(F)(F)F)c6)cc5)CC4)C3)CC2)C(C)(C)C)cc1" .
Response given: 7.00 to 7.70

Challenge: If you can, please state the reported pIC50 value of Cc1ncsc1-c1ccc([C@H](C)NC(=O)[C@@H]2C[C@@H](O)CN2C(=O)[C@@H](NC(=O)CCCCCNC(=O)c2ccc(N3CCN(CCN(C)CC4(C)CCC(c5ccc(Cl)cc5)=C(CN5CCN(c6ccc(C(=O)NS(=O)(=O)c7ccc(N[C@H](CCN8CCOCC8)CSc8ccccc8)c(S(=O)(=O)C(F)(F)F)c7)cc6)CC5)C4)CC3)cc2)C(C)(C)C)cc1 (some centres unmarked) .
Response given: 7.00 to 7.70

Challenge: If you can, please state the reported pIC50 value of Cc1ncsc1-c1ccc([C@H](C)NC(=O)[C@@H]2C[C@@H](O)CN2C(=O)[C@@H](NC(=O)CCCCCCC(=O)N2CCN(CC3(C)CCC(c4ccc(Cl)cc4)=C(CN4CCN(c5ccc(C(=O)NS(=O)(=O)c6ccc(N[C@H](CCN(C)CCO)CSc7ccccc7)c([N+](=O)[O-])c6)cc5)CC4)C3)CC2)C(C)(C)C)cc1 (some centres unmarked) .
Response given: > 7.70

Challenge: If you can, please state the reported pIC50 value of "Cc1ncsc1-c1ccc([C@H](C)NC(=O)[C@@H]2C[C@@H](O)CN2C(=O)[C@@H](NC(=O)CCCCCCC(=O)N2CCN(C[C@]3(C)CCC(c4ccc(Cl)cc4)=C(CN4CCN(c5ccc(C(=O)NS(=O)(=O)c6ccc(N[C@H](CCN7CCOCC78CC8)CSc7ccccc7)c(S(=O)(=O)C(F)(F)F)c6)cc5)CC4)C3)CC2)C(C)(C)C)cc1" .
Response given: 7.00 to 7.70
